system: CDK14/Cyclin Y (Homo sapiens)
Sequence (O94921 whole entry): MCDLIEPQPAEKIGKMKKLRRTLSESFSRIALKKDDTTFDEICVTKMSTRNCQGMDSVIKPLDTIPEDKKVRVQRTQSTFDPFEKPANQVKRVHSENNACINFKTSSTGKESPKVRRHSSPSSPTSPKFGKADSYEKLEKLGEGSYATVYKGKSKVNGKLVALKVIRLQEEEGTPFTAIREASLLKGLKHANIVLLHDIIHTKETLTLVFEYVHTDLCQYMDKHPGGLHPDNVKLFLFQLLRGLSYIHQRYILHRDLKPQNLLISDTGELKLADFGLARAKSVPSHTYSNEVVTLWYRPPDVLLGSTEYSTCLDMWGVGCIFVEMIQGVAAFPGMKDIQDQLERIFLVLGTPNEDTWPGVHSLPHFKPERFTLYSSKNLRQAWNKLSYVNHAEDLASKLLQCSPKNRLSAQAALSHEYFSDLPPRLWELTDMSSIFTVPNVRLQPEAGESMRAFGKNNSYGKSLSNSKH
Sequence (Q8ND76 whole entry partner): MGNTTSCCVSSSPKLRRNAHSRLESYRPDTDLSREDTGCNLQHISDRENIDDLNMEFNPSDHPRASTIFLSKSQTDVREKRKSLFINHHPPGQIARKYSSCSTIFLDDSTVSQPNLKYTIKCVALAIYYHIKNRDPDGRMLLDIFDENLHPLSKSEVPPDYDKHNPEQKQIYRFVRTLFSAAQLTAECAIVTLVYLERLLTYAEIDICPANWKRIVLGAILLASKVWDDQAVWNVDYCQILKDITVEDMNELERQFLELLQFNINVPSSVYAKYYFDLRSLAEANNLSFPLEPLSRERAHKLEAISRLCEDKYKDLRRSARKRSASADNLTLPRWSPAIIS
assay-notes: NanoBRET live-cell target engagement, CDK14-NanoLuc/Cyclin Y in HEK-293
Assay type: binding
stated-conditions: CDK14/Y; average; read-out: Inhibition at 10µM (%)
Decide by inhibition at 10 µM: equal to or exceeding 50% means 1 (yes), less means 0 (no).

[[record]]
compound = "Cn1cc(-c2ccc(-c3cncc(Cl)c3N3CCC4(CCNC4=O)CC3)cc2)cn1"
class_assignment = "0 (no)"

[[record]]
compound = "CNC(=O)c1nn(C)c2c1C(C)(C)Cc1cnc(Nc3ccc(N4CCN(C)CC4)cc3)nc1-2"
class_assignment = "1 (yes)"

[[record]]
compound = "CC(C)N1CCN(c2ccc(Nc3ncc4cc5n(c4n3)C3(CCCCC3)CNC5=O)nc2)CC1"
class_assignment = "0 (no)"

[[record]]
compound = "CC(C)c1cnn2c(NCc3ccccc3)cc(NC[C@H]3CCNC[C@@H]3O)nc12"
class_assignment = "0 (no)"

[[record]]
compound = "CN1CCN(Cc2ccc(NC(=O)Nc3ccc(Oc4ccnc(N)n4)cc3)cc2C(F)(F)F)CC1"
class_assignment = "1 (yes)"

[[record]]
compound = "N#CCNC(=O)c1ccc(-c2ccnc(Nc3ccc(N4CCOCC4)cc3)n2)cc1"
class_assignment = "0 (no)"

[[record]]
compound = "CC(C)(C)c1nc(-c2cccc(NS(=O)(=O)c3c(F)cccc3F)c2F)c(-c2ccnc(N)n2)s1"
class_assignment = "0 (no)"

[[record]]
compound = "NS(=O)(=O)c1ccc(Nc2nc(OCC3CCCCC3)c3nc[nH]c3n2)cc1"
class_assignment = "0 (no)"

[[record]]
compound = "CN1CCN(c2ccc(Nc3ncc4cc(C#N)c(=O)n(C5CCCC5)c4n3)cc2)CC1"
class_assignment = "0 (no)"

[[record]]
compound = "COc1ccc(F)cc1-c1cc(NC(=O)C2CCCNC2)ncc1Cl (stereo not shown)"
class_assignment = "1 (yes)"


---

system: CDK10/Cyclin L2 (Homo sapiens, UniProt Q15131)
Sequence (Q15131 whole entry): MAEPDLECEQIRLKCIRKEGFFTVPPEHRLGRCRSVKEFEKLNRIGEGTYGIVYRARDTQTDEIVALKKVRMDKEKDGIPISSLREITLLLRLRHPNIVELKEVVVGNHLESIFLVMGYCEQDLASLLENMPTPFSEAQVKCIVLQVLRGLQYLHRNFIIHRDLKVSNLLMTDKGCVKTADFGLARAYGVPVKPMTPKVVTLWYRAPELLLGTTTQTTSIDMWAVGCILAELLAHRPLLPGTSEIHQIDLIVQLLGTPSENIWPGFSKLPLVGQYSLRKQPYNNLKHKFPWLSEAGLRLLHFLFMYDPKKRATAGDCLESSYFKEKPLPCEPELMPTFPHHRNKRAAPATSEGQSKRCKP
assay-notes: NanoBRET live-cell target engagement, CDK10-NanoLuc/Cyclin L2 in HEK-293
stated-conditions: read-out: CDK10/L2 IC50; average (± SEM where n=3)
pIC50: −log10 of the molar value.
endpoint: pIC50

[[record]]
compound = "CN(C)C/C=C/C(=O)Nc1ccc(C(=O)Nc2cccc(Nc3ncc(Cl)c(-c4c[nH]c5ccccc45)n3)c2)cc1 [THZ1]"
number = 6.00


---

system: CDK3/Cyclin E1 (Homo sapiens, UniProt Q00526)
Sequence (Q00526 whole entry): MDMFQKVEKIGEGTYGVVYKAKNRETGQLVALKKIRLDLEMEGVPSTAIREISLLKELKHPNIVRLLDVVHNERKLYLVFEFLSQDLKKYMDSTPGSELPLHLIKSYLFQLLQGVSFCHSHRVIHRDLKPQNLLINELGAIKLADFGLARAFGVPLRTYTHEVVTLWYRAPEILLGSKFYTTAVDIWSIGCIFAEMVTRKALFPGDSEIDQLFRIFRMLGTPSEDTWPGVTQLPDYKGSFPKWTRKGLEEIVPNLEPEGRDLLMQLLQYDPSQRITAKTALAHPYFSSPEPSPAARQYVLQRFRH
Sequence (P24864 whole entry partner): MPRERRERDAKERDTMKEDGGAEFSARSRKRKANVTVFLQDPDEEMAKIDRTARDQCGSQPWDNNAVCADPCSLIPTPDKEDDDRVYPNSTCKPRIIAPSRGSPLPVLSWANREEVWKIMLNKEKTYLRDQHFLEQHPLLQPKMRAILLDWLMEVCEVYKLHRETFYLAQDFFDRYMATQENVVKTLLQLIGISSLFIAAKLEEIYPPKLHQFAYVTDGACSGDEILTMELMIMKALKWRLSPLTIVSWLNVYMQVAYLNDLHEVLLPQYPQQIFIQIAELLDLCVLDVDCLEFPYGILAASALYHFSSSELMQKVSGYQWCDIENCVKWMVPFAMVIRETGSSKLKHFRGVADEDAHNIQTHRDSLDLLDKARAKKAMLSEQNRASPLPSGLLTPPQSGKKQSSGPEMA
assay-notes: NanoBRET live-cell target engagement, CDK3-NanoLuc/Cyclin E1 in HEK-293
Format: binding
stated-conditions: CDK3/E1; experiment 2; read-out: Inhibition at 10µM (%)
endpoint: inhibition at 10 µM (%)

[[record]]
molecule = "COc1ccccc1-c1cc(Nc2cccc(CS(N)(=O)=O)c2)ncn1"
number = 31.7

[[record]]
molecule = "COC1CN(C(=O)c2ccc3c(N)ncc(-c4ccc(-c5cnn(C)c5)cc4)c3n2)C1"
number = -2.3

[[record]]
molecule = "N#CCNC(=O)c1ccc(-c2ccnc(Nc3ccc(N4CCOCC4)cc3)n2)cc1"
number = 29.8

[[record]]
molecule = "CC(C)N1CCN(c2ccc(Nc3ncc4cc5n(c4n3)C3(CCCCC3)CNC5=O)nc2)CC1"
number = 1.6

[[record]]
molecule = "CNC(=O)c1nn(C)c2c1C(C)(C)Cc1cnc(Nc3ccc(N4CCN(C)CC4)cc3)nc1-2"
number = 80.9

[[record]]
molecule = "COc1ccc(F)cc1-c1cc(NC(=O)C2CCCNC2)ncc1Cl (centres unmarked)"
number = 93

[[record]]
molecule = "CN1CC[C@H](c2c(O)cc(O)c3c(=O)cc(-c4ccccc4Cl)oc23)[C@H](O)C1"
number = 83.3

[[record]]
molecule = "CN1CCN(c2ccc(Nc3ncc4cc(C#N)c(=O)n(C5CCCC5)c4n3)cc2)CC1"
number = 38.9


// provenance: paper PMC7265341
